All figures here come from patent US20250264459A1.

Tested on: human iPSC-CM (iCell Cardiomyocytes2)
Test: Spent-media metabolomics (LC-MS) cardiotoxicity prediction models, blinded test set
Settings: functional vs general/structural cardiotoxicants, at the Exposure (μM) listed per compound in Table 3
PROPERTY_LABEL: Functional Model Prediction

INSERT INTO assay_data (compound, property_label, result) VALUES
  ('OC[C@H]1O[C@@](CO)(O[C@H]2O[C@H](CO)[C@@H](O)[C@H](O)[C@H]2O)[C@@H](O)[C@@H]1O', 'Functional Model Prediction', '−'),
  ('CS(=O)(=O)OCCCCOS(C)(=O)=O', 'Functional Model Prediction', '−'),
  ('CCCc1nn(C)c2c(=O)[nH]c(-c3cc(S(=O)(=O)N4CCN(C)CC4)ccc3OCC)nc12', 'Functional Model Prediction', '−'),
  ('CC(C)COCC(CN(Cc1ccccc1)c1ccccc1)N1CCCC1 (stereo not drawn)', 'Functional Model Prediction', '+'),
  ('CC[C@H](OC(C)=O)C(C[C@H](C)N(C)C)(c1ccccc1)c1ccccc1 [Levomethadyl Acetate]', 'Functional Model Prediction', '+'),
  ('CC(=O)Oc1ccccc1C(=O)O', 'Functional Model Prediction', '−'),
  ('CN(CCOc1ccc(CC2SC(=O)NC2=O)cc1)c1ccccn1 (stereo not drawn)', 'Functional Model Prediction', '−'),
  ('O=C(O)COCCN1CCN(C(c2ccccc2)c2ccc(Cl)cc2)CC1 (stereo not drawn)', 'Functional Model Prediction', '−'),
  ('Cc1cn(-c2cc(NC(=O)c3ccc(C)c(Nc4nccc(-c5cccnc5)n4)c3)cc(C(F)(F)F)c2)cn1', 'Functional Model Prediction', '−');
